Catalogue of neutralization IC50 readings, one per entry.
target: HIV-1 Env of CAP210.E8 (HIV-1); assay: cell-based or functional assay
Assay Readout: neutralization IC50 (µg/mL)

[[record]]
binder = "CAP256-VRC26.11 (antibody, V domains shown) VH: EVQLVESGGGVVPPGKSLTLSCVASRFTFSAFGMHWVRQAPGKGLEWVASISFAGIKKYYADSVKGRFSISRDNSNTLFLQMNGLRGEDTGLYHCVKDMRELECEEWASDYYDFGKPQPCLDRRGVSGISAWWGPGTMVTVSS VL: QSVLTQPPSVSAAPGQNVTISCSGPPSHIEKNDVSWYQRLPGMAPKMVIYESKRRPLGIPVRFSASRSGSSATLVITGLQTADEADYYCGTWDGRMNFGTGTTVSVLG"
value_reported = 0.073

[[record]]
binder = "CAP256-VRC26.05 (antibody, V domains shown) VH: EVQLVESGGGVVQPGRSLRLSCAASHFSLSSYGMHWVRQAPGKGLEWVTGISFAGTKTYYGDSVRGRFTVSRDISKNTLFLQMNSLRPDDTAMYYCARDQRYYECEEWASDYYDFGREQPCLDPRGVVGIFDLWGQGTMVTVSS VL: QSALTQPPSVSAAPGQKVTISCSGNIGNNYVSWYQQVPGTAPKLLIYENNKRPSGIPDRFSGSKSGTSATLVITGLQTGDEADFYCGTWGGSLRTGGVLGTGTRVTVLG"
value_reported = 0.013

[[record]]
binder = "CAP256-VRC26.04 (antibody, V domains shown) VH: EVQLVESGGGVVQPGKSLRLSCAASQFSFNRYGMHWVRQAPGKGLEWVAAISYDGTDKYHADKVWGRFTISRDNSKNTLYLQMNSLRAEDTALYYCAKDLREDECEEWWSDYYDFGKQLPCRKSRGVAGIFDKWGQGTMVIVSS VL: QPVLTQPPSVSAAPGQKVTISCSGSSSNIGNNFVSWYQQRPGTAPSLLIYETNKRPSGIPDRFSGSKSATSATLAITGLQTGDEADYYCATWAASLTSARVFGTGTKVIVSG"
value_reported = 0.005


Recorded values, source patent US20200199204A1.
